Tested on: astro (control astrocytes)
Protocol: Drug repurposing screens with cells derived from glioblastoma tumor samples (AID 1345199); further: nearly all actives have a fitted effect of over 40% in size
Conditions Used: viability, ATP luminescence, 48 h; series mostly up to 45.9 µM
Inconclusive results are not listed. Active and inactive are the calls of the source. The call rests on the fitted dose curve; in most records, active means well fitted inhibition curve with a large enough effect; inconclusive means small, poorly fitted or top-dose-only effect; inactive means flat fitted curve, though single readings scatter.
Can you answer with just one of these options? T = active, F = inactive

Compound	Label
CN(C(=O)CCCOc1ccc2[nH]c(=O)ccc2c1)C1CCCCC1	F
CSc1ccc(C(=O)c2[nH]c(=O)[nH]c2C)cc1	F
CCN(CC)CCCN(c1ccccc1)C1Cc2ccccc2C1	T
CN(C)C(=O)Oc1cccc([N+](C)(C)C)c1	F
CCN(CC)CCOCCOC(=O)C1(c2ccccc2)CCCC1	T
CCc1c(C)[nH]c2c1C(=O)C(CN1CCOCC1)CC2 (centres undefined)	F

Recorded test outcome, item "NC(=O)N1c2ccccc2C=Cc2ccccc21" F

What was the test verdict on "CCN(CC)CCNC(=O)c1ccc(NC(C)=O)cc1" ? F

Recorded test outcome, item "c1cnc(N2CCN(Cc3ccc4c(c3)OCO4)CC2)nc1" F

In this assay, the call recorded for COc1ccc(CCN(C)CCCC(C#N)(c2cc(OC)c(OC)c(OC)c2)C(C)C)cc1OC (centres undefined) was what? F

What did this assay record as the result for "CO[C@@]1(NC(=O)CSCC#N)C(=O)N2C(C(=O)O)=C(CSc3nnnn3C)CS[C@@H]21" ? F

What was the test verdict on "CC(C)[N+](C)(CCOC(=O)C1c2ccccc2Oc2ccccc21)C(C)C" ? F

How was "CCCCNC(=O)NS(=O)(=O)c1ccc(C)cc1" classified in this test? F

Outcome? CC(C)NCC(O)c1cc(O)cc(O)c1 (centres undefined) F

Outcome logged for "CN/C(=C\[N+](=O)[O-])NCCSCc1ccc(CN(C)C)o1" in this assay: F

Outcome? "C[C@]12CCC(=O)C=C1CC[C@@H]1[C@@H]2CC[C@@]2(C)[C@H]1CC[C@]2(O)C(=O)CO" F

Dear colleague, could you share the recorded outcome for "FC(F)(F)c1ccccc1-n1ccnc1" when you have a moment? F

What is the recorded call for this compound in the test? "CC(=O)Oc1cc(C(C)C)c(OCCN(C)C)cc1C" F

Fill in: this test's call for "CCCN1C[C@H](CSC)C[C@@H]2c3cccc4[nH]cc(c34)C[C@H]21" is ___ F

Field: outcome | Entry: "CCCCNc1c(C(=O)OCC)c(C)nc2c1cnn2CC" F

Called result for "CN(C)CC[C@@H](c1ccc(Br)cc1)c1ccccn1" F

Entry "COc1cc(Cc2cnc(N)nc2N)cc(OC)c1OC" : call = ? F

How was CNC1(C)C2CCC(C2)C1(C)C (centres undefined) classified in this test? F

What is the recorded call for this compound in the test? COCCOC(=O)C1=C(C)NC(C)=C(C(=O)OC(C)C)C1c1cccc([N+](=O)[O-])c1 (centres undefined) F
